Taken from paper PMC2741613.

- target_system: FAP1 (Homo sapiens, UniProt Q12923)
- Sequence (Q12923 whole entry, species assumed): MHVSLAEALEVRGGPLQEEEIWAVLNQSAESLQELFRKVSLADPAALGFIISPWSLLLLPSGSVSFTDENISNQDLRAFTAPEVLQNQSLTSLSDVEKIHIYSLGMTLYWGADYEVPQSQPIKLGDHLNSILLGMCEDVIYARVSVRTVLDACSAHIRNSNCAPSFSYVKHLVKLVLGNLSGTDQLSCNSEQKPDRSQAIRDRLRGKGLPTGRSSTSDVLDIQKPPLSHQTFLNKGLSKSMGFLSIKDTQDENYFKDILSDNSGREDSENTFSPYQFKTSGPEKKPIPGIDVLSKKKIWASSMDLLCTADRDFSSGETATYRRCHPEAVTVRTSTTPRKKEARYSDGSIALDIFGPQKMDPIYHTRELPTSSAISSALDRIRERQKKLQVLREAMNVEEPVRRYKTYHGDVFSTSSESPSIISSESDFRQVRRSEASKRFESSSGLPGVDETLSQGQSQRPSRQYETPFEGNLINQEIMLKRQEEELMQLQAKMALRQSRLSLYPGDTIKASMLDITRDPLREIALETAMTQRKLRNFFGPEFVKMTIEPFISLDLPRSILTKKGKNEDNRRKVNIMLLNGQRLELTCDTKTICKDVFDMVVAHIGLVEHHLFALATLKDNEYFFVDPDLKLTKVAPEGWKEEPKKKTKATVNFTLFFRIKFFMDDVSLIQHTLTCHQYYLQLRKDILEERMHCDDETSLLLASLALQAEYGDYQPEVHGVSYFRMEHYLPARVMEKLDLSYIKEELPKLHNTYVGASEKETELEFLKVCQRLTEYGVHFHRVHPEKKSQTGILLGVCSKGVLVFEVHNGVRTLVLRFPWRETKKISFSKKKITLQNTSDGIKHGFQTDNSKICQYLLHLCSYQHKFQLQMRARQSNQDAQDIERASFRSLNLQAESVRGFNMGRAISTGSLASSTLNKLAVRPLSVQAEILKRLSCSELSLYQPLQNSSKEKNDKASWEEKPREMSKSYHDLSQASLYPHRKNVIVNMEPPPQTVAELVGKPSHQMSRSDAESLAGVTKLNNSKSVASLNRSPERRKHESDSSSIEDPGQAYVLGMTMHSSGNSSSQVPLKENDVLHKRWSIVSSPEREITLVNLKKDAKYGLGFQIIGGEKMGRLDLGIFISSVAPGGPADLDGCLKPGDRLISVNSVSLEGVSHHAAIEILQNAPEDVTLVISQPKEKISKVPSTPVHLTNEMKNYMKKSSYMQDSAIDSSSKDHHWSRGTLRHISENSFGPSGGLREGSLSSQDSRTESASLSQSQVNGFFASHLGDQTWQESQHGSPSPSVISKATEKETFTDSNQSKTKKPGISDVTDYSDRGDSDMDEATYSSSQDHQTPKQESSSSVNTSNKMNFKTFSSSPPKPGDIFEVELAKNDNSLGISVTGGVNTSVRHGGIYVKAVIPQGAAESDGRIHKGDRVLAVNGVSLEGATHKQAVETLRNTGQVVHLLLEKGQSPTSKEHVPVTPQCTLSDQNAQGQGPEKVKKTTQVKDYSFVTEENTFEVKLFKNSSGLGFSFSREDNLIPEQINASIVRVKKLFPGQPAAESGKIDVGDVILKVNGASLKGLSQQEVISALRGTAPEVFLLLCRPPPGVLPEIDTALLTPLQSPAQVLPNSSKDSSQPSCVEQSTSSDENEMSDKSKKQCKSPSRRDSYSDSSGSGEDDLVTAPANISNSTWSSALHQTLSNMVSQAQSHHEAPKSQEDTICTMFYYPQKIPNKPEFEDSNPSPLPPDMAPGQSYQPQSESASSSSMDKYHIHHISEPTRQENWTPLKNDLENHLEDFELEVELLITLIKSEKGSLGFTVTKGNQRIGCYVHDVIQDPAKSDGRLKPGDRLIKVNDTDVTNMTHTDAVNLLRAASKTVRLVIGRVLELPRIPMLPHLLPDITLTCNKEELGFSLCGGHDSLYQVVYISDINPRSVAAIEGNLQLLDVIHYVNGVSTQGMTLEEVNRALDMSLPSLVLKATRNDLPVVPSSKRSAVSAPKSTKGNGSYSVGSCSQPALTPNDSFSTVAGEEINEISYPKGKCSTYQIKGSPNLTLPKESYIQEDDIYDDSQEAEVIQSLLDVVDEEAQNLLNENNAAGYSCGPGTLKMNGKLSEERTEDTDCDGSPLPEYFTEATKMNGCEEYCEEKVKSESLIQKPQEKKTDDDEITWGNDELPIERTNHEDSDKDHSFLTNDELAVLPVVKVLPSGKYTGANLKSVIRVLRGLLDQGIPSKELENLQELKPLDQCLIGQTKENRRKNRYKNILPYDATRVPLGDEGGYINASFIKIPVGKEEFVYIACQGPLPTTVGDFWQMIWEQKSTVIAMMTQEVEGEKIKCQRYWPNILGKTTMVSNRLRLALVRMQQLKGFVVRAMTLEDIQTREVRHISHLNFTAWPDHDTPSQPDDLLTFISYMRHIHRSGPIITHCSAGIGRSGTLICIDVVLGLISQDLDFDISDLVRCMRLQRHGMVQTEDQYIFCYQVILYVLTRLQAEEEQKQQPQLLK
pKi: −log10 of the molar value.
test_readout: pKi

What value of pKi has been recorded for this entry: CCc1ccc(C(=O)NCCCC[C@H](NC(=O)[C@H](Cc2ccc(C(F)(F)P(=O)(O)O)cc2)NC(=O)[C@H](Cc2ccccc2)NC(=O)CO[C@H]2C[C@@H](C)CC[C@@H]2C(C)C)C(N)=O)cc1 [Compound 8] < 6.00

###

- target_system: SHP2 (Homo sapiens, UniProt Q06124)
- Sequence (Q06124 whole entry, species assumed): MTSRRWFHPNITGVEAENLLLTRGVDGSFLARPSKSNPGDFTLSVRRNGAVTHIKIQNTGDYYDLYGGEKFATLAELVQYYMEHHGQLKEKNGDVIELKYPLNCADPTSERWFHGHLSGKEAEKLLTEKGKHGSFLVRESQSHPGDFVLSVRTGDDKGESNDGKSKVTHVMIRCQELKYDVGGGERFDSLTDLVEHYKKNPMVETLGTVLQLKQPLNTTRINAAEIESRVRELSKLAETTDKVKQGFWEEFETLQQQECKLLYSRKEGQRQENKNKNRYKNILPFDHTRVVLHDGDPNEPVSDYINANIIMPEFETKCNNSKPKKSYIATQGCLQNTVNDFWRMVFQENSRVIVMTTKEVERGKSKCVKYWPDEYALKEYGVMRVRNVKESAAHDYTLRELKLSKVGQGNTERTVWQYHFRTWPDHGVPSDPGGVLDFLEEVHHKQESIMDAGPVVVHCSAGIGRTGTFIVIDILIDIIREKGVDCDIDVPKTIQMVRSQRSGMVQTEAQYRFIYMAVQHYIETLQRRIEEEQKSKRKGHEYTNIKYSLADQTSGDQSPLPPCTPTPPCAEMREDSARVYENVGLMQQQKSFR
pKi: −log10 of the molar value.
test_readout: pKi

Give the measured pKi of CCc1ccc(C(=O)NCCCC[C@H](NC(=O)[C@H](Cc2ccc(C(F)(F)P(=O)(O)O)cc2)NC(=O)[C@H](Cc2ccccc2)NC(=O)CO[C@H]2C[C@@H](C)CC[C@@H]2C(C)C)C(N)=O)cc1 [Compound 8] . < 6.00

###

- target_system: VHX (Homo sapiens)
- Sequence (Q9NRW4 whole entry): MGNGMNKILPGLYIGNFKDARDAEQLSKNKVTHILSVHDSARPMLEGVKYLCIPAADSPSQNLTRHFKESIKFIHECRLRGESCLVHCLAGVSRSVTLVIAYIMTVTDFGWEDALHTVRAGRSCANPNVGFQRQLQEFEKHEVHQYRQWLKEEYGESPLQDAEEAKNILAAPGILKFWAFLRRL
test_readout: Ki

Can you look up Ki on VHX (Homo sapiens) for `CCc1ccc(C(=O)NCCCC[C@H](NC(=O)[C@H](Cc2ccc(C(F)(F)P(=O)(O)O)cc2)NC(=O)[C@H](Cc2ccccc2)NC(=O)CO[C@H]2C[C@@H](C)CC[C@@H]2C(C)C)C(N)=O)cc1` ? > 1000 nM

###

- target_system: VHR (Homo sapiens, UniProt P51452)
- Sequence (P51452 whole entry, species assumed): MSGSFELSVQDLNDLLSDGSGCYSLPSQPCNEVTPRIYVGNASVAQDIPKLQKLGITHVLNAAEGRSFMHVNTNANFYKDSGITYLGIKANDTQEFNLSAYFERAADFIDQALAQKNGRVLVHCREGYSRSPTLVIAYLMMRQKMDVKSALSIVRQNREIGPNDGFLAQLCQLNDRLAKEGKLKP
test_readout: Ki

Fill in the blank: the reported Ki of `CCc1ccc(C(=O)NCCCC[C@H](NC(=O)[C@H](Cc2ccc(C(F)(F)P(=O)(O)O)cc2)NC(=O)[C@H](Cc2ccccc2)NC(=O)CO[C@H]2C[C@@H](C)CC[C@@H]2C(C)C)C(N)=O)cc1` is ____. > 1000 nM

###

- target_system: Lyp (Homo sapiens, UniProt Q9Y2R2)
- Sequence (Q9Y2R2 whole entry, species assumed): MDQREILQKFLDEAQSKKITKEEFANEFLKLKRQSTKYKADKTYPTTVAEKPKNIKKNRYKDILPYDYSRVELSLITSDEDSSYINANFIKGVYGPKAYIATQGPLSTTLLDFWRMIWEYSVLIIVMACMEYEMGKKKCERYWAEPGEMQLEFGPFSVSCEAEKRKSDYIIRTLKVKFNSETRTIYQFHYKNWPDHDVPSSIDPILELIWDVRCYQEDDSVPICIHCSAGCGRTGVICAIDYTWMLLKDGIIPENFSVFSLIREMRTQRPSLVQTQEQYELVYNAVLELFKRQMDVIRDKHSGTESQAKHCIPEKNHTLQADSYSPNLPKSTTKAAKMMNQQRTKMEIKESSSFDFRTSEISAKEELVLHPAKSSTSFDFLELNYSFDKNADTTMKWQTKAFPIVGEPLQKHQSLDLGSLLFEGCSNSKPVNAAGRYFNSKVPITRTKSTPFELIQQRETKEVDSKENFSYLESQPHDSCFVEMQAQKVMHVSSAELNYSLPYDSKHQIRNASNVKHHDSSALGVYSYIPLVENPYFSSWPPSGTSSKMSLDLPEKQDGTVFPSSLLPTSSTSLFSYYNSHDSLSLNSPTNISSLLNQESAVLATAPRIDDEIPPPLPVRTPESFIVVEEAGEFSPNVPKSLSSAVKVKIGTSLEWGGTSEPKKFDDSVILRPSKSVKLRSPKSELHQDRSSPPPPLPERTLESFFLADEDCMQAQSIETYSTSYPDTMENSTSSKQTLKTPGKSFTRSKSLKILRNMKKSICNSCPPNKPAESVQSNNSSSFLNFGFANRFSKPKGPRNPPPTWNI
test_readout: Ki

Lyp (Homo sapiens, UniProt Q9Y2R2) / Ki / `CCc1ccc(C(=O)NCCCC[C@H](NC(=O)[C@H](Cc2ccc(C(F)(F)P(=O)(O)O)cc2)NC(=O)[C@H](Cc2ccccc2)NC(=O)CO[C@H]2C[C@@H](C)CC[C@@H]2C(C)C)C(N)=O)cc1` : value? > 1000 nM

###

- target_system: PTP1B (Homo sapiens, UniProt P18031)
- Sequence (P18031 1-435): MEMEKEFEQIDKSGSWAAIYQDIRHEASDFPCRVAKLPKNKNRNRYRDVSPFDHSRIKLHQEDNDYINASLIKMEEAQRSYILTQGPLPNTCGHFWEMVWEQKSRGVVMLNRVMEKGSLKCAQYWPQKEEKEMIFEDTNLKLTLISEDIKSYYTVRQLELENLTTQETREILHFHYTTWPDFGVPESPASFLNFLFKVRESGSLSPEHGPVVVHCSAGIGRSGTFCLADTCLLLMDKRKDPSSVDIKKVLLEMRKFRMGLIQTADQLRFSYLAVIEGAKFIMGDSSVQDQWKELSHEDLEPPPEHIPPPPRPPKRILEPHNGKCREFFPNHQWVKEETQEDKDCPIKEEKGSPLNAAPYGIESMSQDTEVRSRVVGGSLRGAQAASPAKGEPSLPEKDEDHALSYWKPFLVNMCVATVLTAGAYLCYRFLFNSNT
- protocol_summary: PTP activity assay with pNPP, PTP1B
- Format: biochemical
- condition_notes: PTP1B
test_readout: Ki (nM)
Only the number, expressed in nM, is required.

Any idea what its Ki is? The molecule is `CCc1ccc(C(=O)NCCCC[C@H](NC(=O)[C@H](Cc2ccc(C(F)(F)P(=O)(O)O)cc2)NC(=O)[C@H](Cc2ccccc2)NC(=O)CO[C@H]2C[C@@H](C)CC[C@@H]2C(C)C)C(N)=O)cc1` 34
